- measured-target: Metabotropic glutamate receptor 5 (Homo sapiens)
- assay: Displacement of [3H]M-MPEP from mGluR5 (unknown origin) at 1 uM measured after 60 mins relative to control
metric: inhibition (%)

COc1ccc2ncc(S(=O)(=O)c3ccc(C)c(Cl)c3)c(N3CCOCC3)c2c1 :: 28
N#Cc1ccc(S(=O)(=O)c2cnc3c(F)cccc3c2N2CCOCC2)cc1 :: 6
O=S(=O)(c1cc(F)cc(F)c1)c1cnc2ccc(Cl)cc2c1N1CCOCC1 :: 7

I. O=S(=O)(c1cc(Cl)cc(Cl)c1)c1cnc2ccc(Cl)cc2c1N1CCOCC1
II. CC1CCN(c2c(S(=O)(=O)c3cccc(C#N)c3)cnc3ccc(F)cc23)CC1
q: Two entries are listed, I and II . Which one carries the higher inhibition? State your choice using its label.
a: II
(II: 93%, I: 14%)

* * *

- measured-target: Metabotropic glutamate receptor 5 (Homo sapiens, UniProt P41594)
- Sequence (P41594 21-1212 limits assumed): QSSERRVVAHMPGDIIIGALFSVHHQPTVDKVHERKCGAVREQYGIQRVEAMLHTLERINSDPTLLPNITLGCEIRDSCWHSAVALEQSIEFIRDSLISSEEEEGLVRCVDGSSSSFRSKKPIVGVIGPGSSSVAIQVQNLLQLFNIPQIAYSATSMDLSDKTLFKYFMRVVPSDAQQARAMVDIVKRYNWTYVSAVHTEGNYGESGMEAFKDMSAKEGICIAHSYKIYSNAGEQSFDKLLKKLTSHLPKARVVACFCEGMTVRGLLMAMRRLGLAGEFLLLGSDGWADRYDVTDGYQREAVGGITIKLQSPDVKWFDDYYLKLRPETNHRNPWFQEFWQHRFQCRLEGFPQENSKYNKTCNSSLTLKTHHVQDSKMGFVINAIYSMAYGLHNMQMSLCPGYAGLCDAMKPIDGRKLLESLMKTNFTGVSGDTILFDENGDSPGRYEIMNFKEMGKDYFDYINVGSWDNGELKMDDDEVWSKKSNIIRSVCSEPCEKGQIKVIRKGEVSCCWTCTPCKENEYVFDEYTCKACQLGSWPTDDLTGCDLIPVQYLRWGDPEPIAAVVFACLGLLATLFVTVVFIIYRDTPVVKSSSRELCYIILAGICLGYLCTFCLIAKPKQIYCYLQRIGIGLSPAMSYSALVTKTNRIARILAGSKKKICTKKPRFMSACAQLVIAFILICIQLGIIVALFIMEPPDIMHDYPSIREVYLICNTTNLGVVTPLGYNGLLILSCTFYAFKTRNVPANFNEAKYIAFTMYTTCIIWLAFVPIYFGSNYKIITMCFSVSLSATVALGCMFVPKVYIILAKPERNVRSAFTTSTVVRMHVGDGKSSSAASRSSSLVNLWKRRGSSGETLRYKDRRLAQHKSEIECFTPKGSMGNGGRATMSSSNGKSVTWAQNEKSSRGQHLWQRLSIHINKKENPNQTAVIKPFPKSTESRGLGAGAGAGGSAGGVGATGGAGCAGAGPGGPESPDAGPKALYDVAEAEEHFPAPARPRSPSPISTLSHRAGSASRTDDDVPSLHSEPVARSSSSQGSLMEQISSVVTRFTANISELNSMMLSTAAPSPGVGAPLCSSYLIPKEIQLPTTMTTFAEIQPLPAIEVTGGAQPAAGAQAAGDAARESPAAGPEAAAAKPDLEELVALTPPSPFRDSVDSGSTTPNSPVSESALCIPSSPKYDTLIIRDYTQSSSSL
- assay: Displacement of [3H]M-MPEP from mGluR5 (unknown origin) at 1 uM measured after 60 mins relative to control
metric: inhibition (%)

CC1CCN(c2c(S(=O)(=O)c3cc(Cl)cc(Cl)c3)cnc3ccc(F)cc23)CC1 :: 69
CC1CCN(c2c(S(=O)(=O)c3cc(Cl)cc(Cl)c3)cnc3c(F)cccc23)CC1 :: 82
O=S(=O)(c1cc(F)cc(F)c1)c1cnc2cc(F)ccc2c1N1CCSCC1 :: 78.4

* * *

- measured-target: Metabotropic glutamate receptor 5 (Homo sapiens, UniProt P41594)
- assay: Displacement of [3H]M-MPEP from mGluR5 (unknown origin) at 1 uM measured after 60 mins relative to control
metric: inhibition (%)

CC1CCN(c2c(S(=O)(=O)c3ccc(Cl)cc3)cnc3cc(Cl)ccc23)CC1 :: 91
Cc1ccc(S(=O)(=O)c2cnc3cc(Cl)ccc3c2N2CCC(C)CC2)cc1Cl :: 89
COc1ccc(S(=O)(=O)c2cnc3ccc(Cl)cc3c2N2CCC(C)CC2)cc1OC :: 61
COc1ccc2ncc(S(=O)(=O)c3ccc(Cl)cc3)c(N3CCC(C)CC3)c2c1 :: 91
Cc1ccc(S(=O)(=O)c2cnc3ccc(Cl)cc3c2N2CCC(C)CC2)cc1Cl :: 81

* * *

- measured-target: Metabotropic glutamate receptor 5 (Homo sapiens, UniProt P41594)
- assay: Displacement of [3H]M-MPEP from mGluR5 (unknown origin) at 1 uM measured after 60 mins relative to control
metric: inhibition (%)

O=S(=O)(c1ccc(F)cc1)c1cnc2c(F)cccc2c1N1CCOCC1 :: 34
O=S(=O)(c1ccc(Cl)cc1)c1cnc2ccc(F)cc2c1N1CCOCC1 :: 78
Cc1ccc2ncc(S(=O)(=O)c3cc(Cl)cc(Cl)c3)c(N3CCOCC3)c2c1 :: 70

1. CC1CCN(c2c(S(=O)(=O)c3cccc(F)c3)cnc3c(F)cccc23)CC1
2. Cc1ccc(S(=O)(=O)c2cnc3cc(F)ccc3c2N2CCOCC2)cc1
q: Lab log: flag the item ( 1 or 2 ) with the smaller inhibition figure. State your choice using its label.
a: 2

* * *

- measured-target: Metabotropic glutamate receptor 5 (Homo sapiens)
- assay: Displacement of [3H]M-MPEP from mGluR5 (unknown origin) at 1 uM measured after 60 mins relative to control
metric: inhibition (%)

The cases that follow already have their inhibition on record.
Cc1ccc2ncc(S(=O)(=O)c3ccc(C)c(C)c3)c(N3CCC(C)CC3)c2c1 :: 90
O=S(=O)(c1cccc(F)c1)c1cnc2ccc(F)cc2c1N1CCOCC1 :: 0
O=S(=O)(c1ccc(F)cc1)c1cnc2ccc(F)cc2c1N1CCOCC1 :: 2
COc1ccc2ncc(S(=O)(=O)c3cccc(C#N)c3)c(N3CCOCC3)c2c1 :: 20
COc1ccc2ncc(S(=O)(=O)c3cccc(F)c3)c(N3CCC(C)CC3)c2c1 :: 68
O=S(=O)(c1ccc(Cl)c(Cl)c1)c1cnc2ccc(Cl)cc2c1N1CCOCC1 :: 63

a. COc1ccc2ncc(S(=O)(=O)c3cc(F)cc(F)c3)c(N3CCC(C)CC3)c2c1
b. COc1cccc(S(=O)(=O)c2cnc3ccc(OC)cc3c2N2CCOCC2)c1
q: Two entries are listed, a and b . Which one carries the higher inhibition? State your choice using its label.
a: a
